Sourced from patent US20030190365A1

Assay: Equilibrium solubility of azithromycin forms in granulating liquids (HPLC-UV)
Conditions: 24 hours, EtOH 33% in water v/v

Compound: CCC1OC(=O)C(C)C(O[C@H]2C[C@@](C)(OC)[C@@H](O)C(C)O2)C(C)[C@@H](OC2OC(C)CC(N(C)C)[C@H]2O)[C@@](C)(O)C[C@@H](C)CN(C)[C@H](C)[C@@H](O)[C@]1(C)O (some centres unmarked) [form J]
solubility: 0.95 mgA/mL
--
Compound: CC[C@H]1OC(=O)[C@H](C)[C@@H](O[C@H]2C[C@@](C)(OC)[C@@H](O)[C@H](C)O2)[C@H](C)[C@@H](O[C@@H]2O[C@H](C)C[C@H](N(C)C)[C@H]2O)[C@](C)(O)C[C@@H](C)CN(C)[C@H](C)[C@@H](O)[C@]1(C)O [form N, azithromycin]
solubility: 1.06 mgA/mL
--
Compound: CCC1OC(=O)C(C)C(O[C@H]2C[C@@](C)(OC)[C@@H](O)C(C)O2)C(C)[C@@H](OC2OC(C)CC(N(C)C)[C@H]2O)[C@@](C)(O)C[C@@H](C)CN(C)[C@H](C)[C@@H](O)[C@]1(C)O (some centres unmarked) [form M]
solubility: 0.97 mgA/mL
--
Compound: CC[C@H]1OC(=O)[C@H](C)[C@@H](O[C@H]2C[C@@](C)(OC)[C@@H](O)[C@H](C)O2)[C@H](C)[C@@H](O[C@@H]2O[C@H](C)C[C@H](N(C)C)[C@H]2O)[C@](C)(O)C[C@@H](C)CN(C)[C@H](C)[C@@H](O)[C@]1(C)O [form A, reference compound]
solubility: 1.30 mgA/mL
--
Compound: CCC1OC(=O)C(C)C(O[C@H]2C[C@@](C)(OC)[C@@H](O)C(C)O2)C(C)[C@@H](OC2OC(C)CC(N(C)C)[C@H]2O)[C@@](C)(O)C[C@@H](C)CN(C)[C@H](C)[C@@H](O)[C@]1(C)O (some centres unmarked) [form F]
solubility: 0.98 mgA/mL
